Below: a set of entries, each annotated with reported 10^2 kobsd (h^-1).
assay: Rate constant (Kobs) obtained from IR spectroscopy
endpoint_label: 10^2 kobsd (h^-1) (hr-1)

INSERT INTO results (compound, reading) VALUES
  ('CS(=O)(=O)OC1=C(C(=O)[O-])N2C(=O)C(NC(=O)Cc3ccccc3)C2SC1.[Na+] (configuration not stated)', 46.5),
  ('CC1=C(C(=O)[O-])N2C(=O)C(NC(=O)Cc3ccccc3)C2SC1.[Na+] (configuration not stated)', 1.36),
  ('CC(=O)OCC1=C(C(=O)[O-])N2C(=O)C(NC(=O)Cc3cccs3)C2SC1.[Na+] (configuration not stated)', 11.1),
  ('O=C(Cc1ccccc1)NC1C(=O)N2C(C(=O)[O-])=CCSC12.[Na+] (configuration not stated)', 3.1),
  ('O=C(Cc1ccccc1)NC1C(=O)N2C(C(=O)[O-])=C(Cl)CSC12.[Na+] (configuration not stated)', 15.2),
  ('CCOC(=O)CC1=C(C(=O)[O-])N2C(=O)C(NC(=O)Cc3ccccc3)C2SC1.[Na+] (configuration not stated)', 1.82);
